assay: Drug repurposing screens with cells derived from glioblastoma tumor samples (AID 1345199); details: GBM patient neurospheres viability, ATP luminescence, 48 h; at 46.1 µM (top of the series); tumour line C; note: % is set by controls: 0 for no effect and ±100 for the full control effect
Inconclusive results are not listed.
measured.parameter: activity, negative = cell killing (%)
Answers are plain numbers, in %.

Below: 2 compounds and their reported activity, negative = cell killing.
compound	uom	test.result
CN1CCN(C(=O)C2CCCCC2)CC1	%	-23.1
NC(=O)CCCCC1CCSS1 (stereo unspecified)	%	2.37

Batch lookup, activity, negative = cell killing per entry.
1. CC[N+](CC)(CC(=O)Nc1c(C)cccc1C)Cc1ccccc1
2. COc1cc(O)cc(O)c1
3. Cc1c(I)c(=O)n(-c2ccccc2)n1C
4. Cc1cccc(Nc2ccccc2C(=O)O)c1C
5. c1ccc2[nH]ccc2c1
6. COc1ccc(O)cc1
7. CCOC(=O)c1cccnc1

Result string:
1. -28
2. -3.31
3. 3.68
4. -15.4
5. 0.178
6. -24.9
7. 22.3

Field: activity, negative = cell killing. Fill in for each record below.
1. C[C@]1(Cn2ccnn2)[C@H](C(=O)O)N2C(=O)C[C@H]2S1(=O)=O
2. O=C(O)CCCc1ccccc1
3. CCN1CC(CCN2CCOCC2)C(c2ccccc2)(c2ccccc2)C1=O (stereo unspecified)
4. CCOc1ccccc1O[C@H](c1ccccc1)[C@H]1CNCCO1
5. CN1C(=O)CC(c2ccccc2)C1=O (stereo unspecified)
6. Cc1c(N(C)C)c(=O)n(-c2ccccc2)n1C

Result string:
1. -1.25
2. -9.45
3. -23.7
4. 11.5
5. -11.6
6. -17.7

Query string: Which activity, negative = cell killing value is on record for Nc1ccncc1N ?
Result string: -14.3

Value source: PubChem BioAssay (NCATS)
